- target-under-test: Fibroblast growth factor receptor 2 (Homo sapiens, UniProt P21802)
- Sequence (P21802 whole entry): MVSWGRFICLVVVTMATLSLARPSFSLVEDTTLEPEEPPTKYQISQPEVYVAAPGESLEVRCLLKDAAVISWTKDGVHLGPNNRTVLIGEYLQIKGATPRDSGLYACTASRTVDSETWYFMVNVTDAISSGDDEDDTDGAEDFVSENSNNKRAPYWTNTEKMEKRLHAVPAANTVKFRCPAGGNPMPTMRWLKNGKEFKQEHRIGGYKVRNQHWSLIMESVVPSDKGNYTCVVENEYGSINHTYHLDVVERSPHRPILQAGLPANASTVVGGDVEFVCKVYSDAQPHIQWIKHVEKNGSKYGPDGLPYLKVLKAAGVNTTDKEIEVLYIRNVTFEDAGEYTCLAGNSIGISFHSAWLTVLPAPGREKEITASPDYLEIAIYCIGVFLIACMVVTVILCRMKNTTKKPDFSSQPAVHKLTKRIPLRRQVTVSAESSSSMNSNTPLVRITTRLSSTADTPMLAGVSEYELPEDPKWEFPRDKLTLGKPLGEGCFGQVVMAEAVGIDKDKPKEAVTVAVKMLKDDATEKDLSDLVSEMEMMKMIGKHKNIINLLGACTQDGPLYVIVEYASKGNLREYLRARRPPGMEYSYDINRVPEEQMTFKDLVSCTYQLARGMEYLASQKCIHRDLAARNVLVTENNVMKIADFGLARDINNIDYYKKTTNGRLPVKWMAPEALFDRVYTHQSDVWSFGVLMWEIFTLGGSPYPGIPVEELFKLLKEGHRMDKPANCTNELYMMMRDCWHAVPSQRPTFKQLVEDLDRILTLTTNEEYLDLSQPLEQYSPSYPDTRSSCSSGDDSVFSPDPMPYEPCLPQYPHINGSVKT
observed-property: IC50

Known IC50 results, listed for orientation:
Value (IC50, Fibroblast growth factor receptor 2 (Homo sapiens, UniProt P21802)) for record CC#CC(=O)N(C)c1ccc(-c2c(-c3ccc(Oc4cccc(C)n4)c(OC)c3)c3c(N)ncnc3n2C)cc1 = < 100 nM

So the reported IC50 for CC#CC(=O)Nc1ccc(-c2c(-c3ccc(Oc4cccc(C)n4)c(OC)c3)c3c(N)ncnc3n2C)cc1 , on Fibroblast growth factor receptor 2 (Homo sapiens, UniProt P21802), turned out to be < 100 nM

Others:
Short answer on Fibroblast growth factor receptor 2 (Homo sapiens, UniProt P21802) for C=CC(=O)Nc1ccc(-c2c(-c3ccc(Oc4cccc(C)c4)c(OC)c3)c3c(N)ncnc3n2C)cc1 , IC50: < 100 nM
